Target: porcine kidney trehalase (Sus scrofa, UniProt I3LIR5)
Construct: porcine kidney trehalase (purchased from Sigma-Aldrich); purchased Sigma-Aldrich; host or cells: porcine kidney
Sequence (I3LIR5 24-583): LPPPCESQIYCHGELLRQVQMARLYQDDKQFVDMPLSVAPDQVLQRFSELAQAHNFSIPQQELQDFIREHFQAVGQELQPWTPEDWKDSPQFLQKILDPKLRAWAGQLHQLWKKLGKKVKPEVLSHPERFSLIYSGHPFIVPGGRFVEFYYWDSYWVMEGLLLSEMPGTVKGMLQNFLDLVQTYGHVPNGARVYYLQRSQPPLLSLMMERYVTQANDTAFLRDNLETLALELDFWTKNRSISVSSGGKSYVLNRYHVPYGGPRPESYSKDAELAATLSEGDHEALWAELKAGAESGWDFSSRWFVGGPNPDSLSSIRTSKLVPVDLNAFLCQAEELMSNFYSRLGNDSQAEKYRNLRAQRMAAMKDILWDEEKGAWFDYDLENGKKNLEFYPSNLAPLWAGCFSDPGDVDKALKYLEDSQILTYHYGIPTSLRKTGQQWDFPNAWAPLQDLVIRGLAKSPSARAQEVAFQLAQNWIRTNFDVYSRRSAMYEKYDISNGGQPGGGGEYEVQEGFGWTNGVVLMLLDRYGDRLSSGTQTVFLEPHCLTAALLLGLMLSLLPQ
Test: Trehalase inhibition, coupled assay with glucose-6-phosphate dehydrogenase and hexokinase (dose-response)
Type: biochemical
Details: 2.5 mM trehalose (close to Km), 30 °C; read-out: IC50 towards porcine trehalase
pIC50: −log10 of the molar value.
observable: pIC50

OC[C@@H]1[C@@H](O)[C@H](O)CN1CCO[C@@H]1O[C@H](CO)[C@@H](O)[C@H](O)[C@H]1O
5.23

(I) OC[C@@H]1[C@@H](O)[C@H](O)CN1CCOC1O[C@H](CO)[C@@H](O)[C@H](O)[C@H]1O (stereo partly shown)
(II) OC[C@@H]1[C@@H](O)[C@H](O)CN1CCO[C@H]1O[C@H](CO)[C@@H](O)[C@H](O)[C@H]1O
(III) OC[C@@H]1[C@@H](O)[C@H](O)[C@H]2C[C@H](O[C@H]3O[C@H](CO)[C@@H](O)[C@H](O)[C@H]3O)CN12
*Q* Arrange the 3 entries by pIC50 so the values rise. Field: ranking. Enter the labels in the order requested.
*A* III, II, I
